Just for reference, ChEMBL document CHEMBL5303304 is where these values come from.

# Test system: U2OS
# procedure_details: Incucyte cell viability with U2OS; also: unitless GR value; below 1 slowed growth and below 0 cell loss
# Format: toxicity, cell-based
# details: human, 12 h, 10 µM, compound concentration 10 uM, replicate number 1
Answer no if Growth Rate is under 0.9, and yes if it is 0.9 or more.

These recorded examples may help you get a feel for the data.
1. CCCc1c(OCCCOc2ccc(OCC(=O)O)cc2)ccc(C(C)=O)c1O    no
2. CC(C)n1cnc2c(Nc3cccc(Cl)c3)nc(N[C@H]3CCCC[C@@H]3N)nc21    no
3. CCN1C(=O)c2cc(C)ccc2N(C)c2ncccc21    no

Now, please, on to the next molecule.
Q. In plain terms: is recorded Growth Rate at least 0.9 for `Cc1cc(OCCC(C)(C)O)cc(C)c1-c1ccc(F)c2c1CC[C@H]2Oc1ccc2c(c1)OC[C@H]2CC(=O)O` ?
A. yes
